EXPERIMENTAL PROTOCOL: in vitro
REPORTED CONDITIONS: human, hela cells, % viability
Form field: viability at 28.5 h, 10 µM (one value per entry).
QUANTITY NAME: viability at 28.5 h, 10 µM (%)

COMPOUND: CCCCn1c(SCC(O)COCc2ccc(OC)c(OC)c2)n[nH]c1=O (stereo not shown) [CBK296653]
TEST RESULT: 99.3

COMPOUND: C[C@H](c1ccccc1)N1C(=O)[C@@H]2CN(C(=O)CC(C)(C)CC(=O)O)CCN2C1=O [CBK289639]
TEST RESULT: 114

COMPOUND: Cc1csc(C(Cc2ccsc2)NC(=O)C2CCOCC2)n1 (stereo not shown) [CBK285047]
TEST RESULT: 102

COMPOUND: COc1ccc([C@@]23CC[C@@H](NC(=O)Nc4ccc(F)cc4)C[C@@H]2N(C)CC3)cc1OC [CBK036458T]
TEST RESULT: 93.5

COMPOUND: CCOC(=O)CNC(=S)N[C@H]1CC[C@@]2(c3cccnc3)CCN(Cc3ccccc3)[C@H]2C1 [CBK028453]
TEST RESULT: 115

COMPOUND: Cc1ccccc1-c1ccccc1CC1(C(N)=O)CCN(C(=O)CCc2ccccc2)CC1 [CBK285725]
TEST RESULT: 102

COMPOUND: Cc1ccc(CC(C#N)Sc2nc(CN3CCOCC3)nc3ccccc23)cc1 (stereo not shown) [CBK298321]
TEST RESULT: 82

COMPOUND: COc1ccc(C(O)Cc2nc3ccccc3n2Cc2ccc(Cl)cc2)cc1 (stereo not shown) [CBK262143]
TEST RESULT: 86.2

COMPOUND: Cn1c(Sc2ccc(C#N)cn2)nnc1-c1ccco1 [CBK297756]
TEST RESULT: 111

COMPOUND: CCN(CC)C(=O)CN1CCN(c2nccnc2OCC2COc3ccccc3O2)CC1 (stereo not shown) [CBK082803T]
TEST RESULT: 96.5

COMPOUND: CCn1c(CN2CCOCC2)nnc1SCC(=O)Nc1cccc(Br)c1 [CBK269740]
TEST RESULT: 85.6

COMPOUND: CC(=O)N1CCC(c2c(C(=O)Nc3cccc(CN4CCCC4)c3)sc3ccccc23)C1 (stereo not shown) [CBK285892]
TEST RESULT: 110

COMPOUND: CCS(=O)(=O)N1CCN(C(=O)c2ccc3nc(C)c(N(CCOC)Cc4ccc(OC)cc4)n3c2)CC1 [CBK146153]
TEST RESULT: 98.2

COMPOUND: CC1CC(C)CN(C2CCN(Cc3ccccn3)CC2)C1 (stereo not shown) [CBK264639G]
TEST RESULT: 99.4

COMPOUND: CC(=O)Nc1cccc(C(=O)OCC(=O)N2CCCCC2C)c1 (stereo not shown) [CBK305868]
TEST RESULT: 76.6

COMPOUND: CC(=O)N[C@H](Cc1c[nH]c2ccccc12)C(=O)N1CC[C@H]2NC(=O)[C@H](Cc3ccccc3)NC(=O)C3(C/C=C/C[C@H]2C1)CCOCC3 [CBK292205]
TEST RESULT: 89.9

COMPOUND: O=C(O)c1ccc(CSc2nnc(-c3ccncc3)o2)cc1 [CBK266352]
TEST RESULT: 98.5

COMPOUND: Clc1ccc(CSc2nccnc2N2CCCC2)cc1 [CBK107177]
TEST RESULT: 95.9

COMPOUND: Oc1cccc(-c2nccnc2N[C@@H]2CCN(Cc3ccccc3)C2)c1 [CBK037017]
TEST RESULT: 98.2

COMPOUND: Cc1cc(OCC(=O)N2CCN(c3ccccc3F)CC2)no1 [CBK305898]
TEST RESULT: 87.1

COMPOUND: O=c1[nH]cc(-c2ccccc2)cc1CNCC1Cc2ccccc2O1 (stereo not shown) [CBK284772]
TEST RESULT: 92.3

COMPOUND: CCCn1ncc(C(=O)N2CCC(Oc3ccccc3F)CC2)c1C [CBK282169]
TEST RESULT: 115

COMPOUND: Cc1ccc(F)cc1C(=O)NCC1CCN(c2cnn(C)c(=O)c2)C1 (stereo not shown) [CBK307235]
TEST RESULT: 92.2

COMPOUND: CCN(C(C)=O)c1nc(CN2CCOC(c3ccc(F)cc3)C2)cs1 (stereo not shown) [CBK306213]
TEST RESULT: 94.3

COMPOUND: CCOC(=O)c1c(NC(=S)N2CCN(S(C)(=O)=O)CC2)sc(C)c1-c1ccccc1 [CBK267072]
TEST RESULT: 98
